B1: Hairpin Ribozyme (parent)
chain: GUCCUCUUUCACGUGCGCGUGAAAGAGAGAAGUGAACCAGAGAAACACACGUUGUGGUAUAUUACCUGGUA

- Variants of: B1
- protocol text: self-cleavage, relative activity (ratio to wild type); higher = more cleavage; co-transcriptional
Label rule, in plain words: self-cleavage of 0.2 and up is yes, under 0.2 is no.

U9C A30G: yes
A23C A36C: yes
C18A G27C: no
A28G C50A: yes
U9G A44C: no

Enquiry: Does A31G G68C have a reported self-cleavage of at least 0.2?
Return: no

Enquiry: Say whether C3U U9C shows self-cleavage of 0.2 or more.
Return: yes

Enquiry: Does the reported self-cleavage for A39G G69U fall at or above the 0.2 mark?
Return: no

Enquiry: Form field: self-cleavage at least 0.2? Entry: A44U U53G
Return: no

Enquiry: Threshold query (self-cleavage >= 0.2) on C16U U63A
Return: yes

Enquiry: Tell me whether self-cleavage is at least 0.2 here: U14C A41G
Return: yes

Enquiry: Evaluate A49G U70G : self-cleavage at minimum 0.2?
Return: yes

Enquiry: Can A24U G68C be said to have self-cleavage at or above 0.2?
Return: no

Enquiry: Could you verify whether the entry U55A A71G shows self-cleavage of no less than 0.2?
Return: no

Enquiry: Kindly determine if self-cleavage recorded for U63G A64G is above or exactly 0.2.
Return: no

Enquiry: self-cleavage >= 0.2 for C50A U53A ?
Return: yes

Enquiry: Tell me whether self-cleavage is at least 0.2 here: U8G A43G
Return: no

Enquiry: Check the entry G34U A45U : does self-cleavage equal or exceed 0.2?
Return: yes

Enquiry: Quick check: does U5G C16A have self-cleavage greater than or equal to 0.2?
Return: yes

Enquiry: In plain terms: is recorded self-cleavage at least 0.2 for A44C G56A ?
Return: no

Enquiry: Evaluate A24C G32U : self-cleavage at minimum 0.2?
Return: no

Enquiry: I'd appreciate it if you could say whether G21U A39U has self-cleavage at least equal to 0.2.
Return: yes

Enquiry: Record A39C U62C ; criterion: self-cleavage no lower than 0.2. Met?
Return: no

Each recorded value in this set is attributed to the RNAGym collection of RNA variant scans (doi:10.7554/elife.80360).
